test system: Homo sapiens; test: Mean change in insulin concentration in healthy white human plasma with SLCO1B1 521TT/CYP2C8*1/*1 combined genotype at 2 mg, po; type: ADME, organism-based; settings: in vivo
MEASURED METRIC: Activity (mU/l)

{"columns": ["COMPOUND", "MEASURED METRIC", "EXPERIMENTAL VALUE"],
 "data": [
  ["CCOc1cc(CC(=O)N[C@@H](CC(C)C)c2ccccc2N2CCCCC2)ccc1C(=O)O [REPAGLINIDE]", "Activity", 7.1]
]}
